Source listed as patent US20230303695A1.

Below: a set of entries, each annotated with reported EC50.
Target: T1, human IGSF8 expressed on the cell surface (human, UniProt Q969P0 28-613)
T1 construct: whole, on cells; also called human IGSF8 on CT26 cells; IGSF8 on MC38 cells
T1 sequence (looked up): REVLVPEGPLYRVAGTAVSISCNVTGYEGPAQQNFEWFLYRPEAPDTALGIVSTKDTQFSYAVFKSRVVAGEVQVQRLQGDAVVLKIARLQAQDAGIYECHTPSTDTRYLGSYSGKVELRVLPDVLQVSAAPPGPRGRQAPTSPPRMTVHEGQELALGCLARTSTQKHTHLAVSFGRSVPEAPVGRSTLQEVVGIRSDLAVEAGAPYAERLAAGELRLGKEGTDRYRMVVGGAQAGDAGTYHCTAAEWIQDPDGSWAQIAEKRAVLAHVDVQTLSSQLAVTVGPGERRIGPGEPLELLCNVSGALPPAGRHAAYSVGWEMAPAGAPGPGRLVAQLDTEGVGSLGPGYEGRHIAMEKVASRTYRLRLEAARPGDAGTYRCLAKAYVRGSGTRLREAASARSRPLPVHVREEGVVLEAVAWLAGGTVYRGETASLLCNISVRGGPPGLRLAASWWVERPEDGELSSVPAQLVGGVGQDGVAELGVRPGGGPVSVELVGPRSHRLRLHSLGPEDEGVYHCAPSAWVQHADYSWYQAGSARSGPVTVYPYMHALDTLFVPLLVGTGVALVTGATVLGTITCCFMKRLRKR
Assay: FACS on CT26 cells with forced surface expression of human IGSF8
attribute measured: EC50 (nM)

[[record]]
binder = "Antibody C37 (3F12) (antibody, V domains shown, also called mAb-3F12(C37)) VH: EVQLVQSGGGLVKPGGSLRLSCAASGFTFSSYSMNWVRQAPGKGLEWVSSISSSSSYIYYADSVKGRFTISRDNAKNSLYLQMNSLRAEDTAVYYCAGRQYDFWSGWDWFDPWGQGTLVTVSS VL: DIQLTQSPSSLSASVGDRVTITCRASQSISTYLNWYQQKPGKAPKLLIHDASILQSGVPSRFSGSGSGTDFTLTISSLQAEDFATYYCQQSYSTLPYTFGQGTKVEIK"
units_of_measure = "nM"
observed_result = 5.93

[[record]]
binder = "Antibody C36 (1B4) (antibody, V domains shown, also called mAb-1B4 (C36)) VH: EVQLLESGGGLVQPGGSLRLSCAASGFTFSSYAMSWVRQAPGKGLEWVSGITGSGGSTYYADSVKGRFTISRDNSKNTLYLQMNSLRAEDTAIYYCARGGALDIWGQGTMVTVSS VL: DIQMTQSPSSLSASVGDRVTITCRASQVIHNYLAWYKQKPGQAPKLLIYSASSLQSGVPSRFSGSGSGTDFTLTISSLQPEDFATYYCQQSYSTPLTFGGGTKVEIKR"
units_of_measure = "nM"
observed_result = 2.02

[[record]]
binder = "Antibody C31 (B46) (antibody, V domains shown, also called mAb-B46 (C31)) VH: QVQLVESGGGVVQPGRSLRLSCAASGFTFSTYGMHWVRQAPGKGLEWVAVIWDDGSYKYYGDSVKGRFTISRDNSKNTLYLQMNSLRAEDTAVYYCAGGYSYSYMAIWGKGTTVTVSS VL: DIVLTQSPSSLSASVGDRVTITCRASQGISTFLNWYQQKPGKAPKLLIYAASSLQSGVPSRFSGSGSGTDFTLTIGSLQPEDFASYFCQQTYSTQWTFGQGTKVEIK"
units_of_measure = "nM"
observed_result = 2.08

[[record]]
binder = "Antibody C38 (2B4) (antibody, V domains shown, also called mAb-2B4 (C38)) VH: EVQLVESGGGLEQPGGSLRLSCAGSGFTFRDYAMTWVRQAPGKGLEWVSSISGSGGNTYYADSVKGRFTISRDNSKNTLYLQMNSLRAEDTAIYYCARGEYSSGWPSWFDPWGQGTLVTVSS VL: EIVLTQSPSSLSASVGDRVTISCRASRTVGTFLNWYQQRPGKPPQALILGVSILEGGVSSRFSGAGSGTEFSLTISSLQPEDIGTYYCQQSHDVPRTFGQGTKVDLRR"
units_of_measure = "nM"
observed_result = 4.64

[[record]]
binder = "Antibody C30 (B34) (antibody, V domains shown, Expressed in CHO cells; also called mAb-B34 (C30)) VH: EVQLLESGGGLVQPGGSLRLSCAASGFTFSSYAMSWVRQAPGKGLEWVSGITGSGGSTYYADSVKGRFTISRDNSKNTLYLQMNSLRAEDTAVYYCARGRQVDKWGQGTLVTVSS VL: DIMLTQSPSSLSASVGDRVTITCRASQSIHNYLNWIQQTPGKAPKLLVFAASTLQRGVPPRYSGRGSGTEFTLTISSLQPEDFATYYCQQSYTTPLTFGGGTKVEIRR"
units_of_measure = "nM"
observed_result = 7.88

